test system: TK-10 renal; experiment: NCI tumour cell line growth inhibition, 48 h
Endpoint Name: TGI (µM)
Give the value, in units of µM, as a plain number.

Input Smiles | System | Observed
O=C1C(SCCO)=C(SCCO)C(=O)N1c1ccc(-c2ccccc2)cc1 | TK-10 renal | 3.18
COc1ccc(/C=C(\C(=O)NCc2cccnc2)S(=O)(=O)c2ccccc2)cc1OC | TK-10 renal | 18.1

Q) Find the recorded TGI belonging to Cn1c(N)nc(-c2ccc(Cl)cc2)c1SSc1c(-c2ccc(Cl)cc2)nc(N)n1C and report it.
A) 3.32

---

test system: HOP-62 NSCLC; assay: NCI tumour cell line growth inhibition, 48 h
Known TGI of a selection of compounds

In the examples that follow, each entry is paired with its recorded TGI.
Compound | System | TGI
Cc1[nH]c(=O)nc(NNCc2ccc(Cl)cc2)c1C(=O)Nc1ccc(Cl)cc1 | HOP-62 NSCLC | > 100 µM
COc1ccc(CC2(Cc3ccc(OC)cc3)CCOC2=O)cc1 | HOP-62 NSCLC | > 100 µM
O=C(c1cc2c(c3ccccc13)NC1(CCCCC1)N=C2C(F)(F)F)C(F)(F)F | HOP-62 NSCLC | > 100 µM
O=C1c2ccccc2N2Oc3ccccc3C12c1ccccc1 (stereo unspecified) | HOP-62 NSCLC | > 100 µM
Cc1ccc(-c2csc(NC(=O)N3CCN(c4cc5c(cc4F)c(=O)c(C(=O)O)cn5C4CC4)CC3)n2)cc1 | HOP-62 NSCLC | > 100 µM

Now for a further compound.
Q) What value of TGI on HOP-62 NSCLC does O=[N+]([O-])c1ccc(N=Nc2ccc(O)c3ccccc23)cc1 have?
A) > 100 µM
